conditions: in methanol, 308.15 K
readout: solubility (mole fraction)
Numbers only.

Requested read-out: solubility (mole fraction). Entry: `O=[N+]([O-])c1ncccc1O` 0.271

###

conditions: in ethyl acetate, 283.15 K
readout: solubility (mole fraction)

Requested read-out: solubility (mole fraction). Entry: `O=[N+]([O-])c1ncccc1O` 0.128

###

conditions: in ethanol, 313.15 K
readout: solubility (mole fraction)
One number for each entry.

Requested read-out: solubility (mole fraction). Entry: `O=[N+]([O-])c1ncccc1O` 0.232

###

settings: in water, 308.15 K
readout: solubility (mole fraction)
One number for each entry.

Requested read-out: solubility (mole fraction). Entry: `O=[N+]([O-])c1ncccc1O` 0.00544
